Provide the recorded pKd for the entries that follow.
Target: human CA-IX (Homo sapiens, UniProt Q16790)
Construct: purchased Acro CA9-H82E3
Test: Surface Plasmon Resonance (SPR) binding kinetics to recombinant human CA-IX (Biacore 8K, single-cycle kinetics, 1:1 binding model)
Conditions: Chelated Metal: Lu-175; SPR, 25° C., pH 7.4; read-out: CAIX KD
pKd: −log10 of the molar value.

Look up pKd for this molecule: "CC(CCCC(=O)N1CCOC[C@H]1C(=O)N[C@@H](CC(=O)N1CCN(C(=O)CN2CCN(CC(=O)O)CCN(CC(=O)O)CCN(CC(=O)O)CC2)C[C@H]1C(=O)NCCn1cc(C23CC(c4cn5nc(S(N)(=O)=O)sc5n4)(C2)C3)nn1)C(=O)O)(c1ccc(O)cc1)c1ccc(O)cc1.[Lu+3]"
> 9.00

Look up pKd for this molecule: "CC(CCCC(=O)N1CCC(C(N)=O)(C(=O)NCC(=O)N2CCN(C(=O)CC[C@H](C(=O)O)N3CCN(CC(=O)O)CCN(CC(=O)O)CCN(CC(=O)O)CC3)C[C@@H]2C(=O)NCCn2cc(C34CC(C(=O)Nc5nnc(S(N)(=O)=O)s5)(C3)C4)nn2)CC1)(c1ccc(O)cc1)c1ccc(O)cc1.[Lu+3]"
> 9.00

Look up pKd for this molecule: "CC(CCC(=O)N1CCOC[C@H]1C(=O)N[C@@H](CC(=O)N1CCN(C(=O)CN2CCN(CC(=O)O)CCN(CC(=O)O)CCN(CC(=O)O)CC2)C[C@@H]1C(=O)NCCn1cc(C23CC(C(=O)Nc4nnc(S(N)(=O)=O)s4)(C2)C3)nn1)C(=O)O)(c1ccc(O)cc1)c1ccc(O)cc1.[Lu+3]"
8.60 to 9.00
